The reported numbers originate from the supplement of paper PMC8617591.

System: Mycobacterium tuberculosis Erdman (autoluminescent)
Test: FIC50 (Loewe) at 50% inhibition (log2); higher = more antagonistic
Settings: in vitro model: valerate; time point: constant (~7 days, model-specific)
Outcome: met for FIC50 of at least 0.5; not met for anything lower.

Worked examples follow.
1) NNC(=O)c1ccncc1 [isoniazid] + O=[N+]([O-])c1cn2c(n1)OC[C@@H](OCc1ccc(OC(F)(F)F)cc1)C2 [pretomanid] | met
2) CC(C)/N=c1\cc2n(-c3ccc(Cl)cc3)c3ccccc3nc-2cc1Nc1ccc(Cl)cc1 [clofazimine] + CO[C@H]1/C=C/O[C@@]2(C)Oc3c(C)c(O)c4c(O)c(c(/C=N/N5CCN(C)CC5)c(O)c4c3C2=O)NC(=O)/C(C)=C\C=C\[C@H](C)[C@H](O)[C@@H](C)[C@@H](O)[C@@H](C)[C@H](OC(C)=O)[C@@H]1C [rifampicin] | not met
3) CC(C)/N=c1\cc2n(-c3ccc(Cl)cc3)c3ccccc3nc-2cc1Nc1ccc(Cl)cc1 [clofazimine] + O=[N+]([O-])c1cn2c(n1)OC[C@@H](OCc1ccc(OC(F)(F)F)cc1)C2 [pretomanid] | met
4) COc1nc2ccc(Br)cc2cc1[C@@H](c1ccccc1)[C@@](O)(CCN(C)C)c1cccc2ccccc12 [bedaquiline] + COc1c(N2C[C@@H]3CCCN[C@@H]3C2)c(F)cc2c(=O)c(C(=O)O)cn(C3CC3)c12 [moxifloxacin] | not met

Now examine the next entry.
Does FIC50 meet or surpass 0.5 for CC[C@@H](CO)NCCN[C@@H](CC)CO [ethambutol] + NC(=O)c1cnccn1 [pyrazinamide] ?
not met
